Test: In vitro cytotoxicity, THP-1 cell viability after 3 days
Type: cell-based
Details: human, THP-1 cells

smi	IC50 at 3 days
O=C1c2ccccc2C(=O)N1c1nnc(-c2ccc(I)cc2)s1	> 200 µM
O=C1c2ccccc2C(=O)N1c1ccc(Cl)cc1	> 150 µM
O=C1c2ccccc2C(=O)N1c1ccc(Br)cc1	> 150 µM
O=C1c2ccccc2C(=O)N1c1cccc(Cl)c1	> 150 µM
Cc1cccc(N2C(=O)c3ccccc3C2=O)c1	> 150 µM

###

Biological target: UniProt P9WGR1
Sequence (P9WGR1 whole entry, looked up): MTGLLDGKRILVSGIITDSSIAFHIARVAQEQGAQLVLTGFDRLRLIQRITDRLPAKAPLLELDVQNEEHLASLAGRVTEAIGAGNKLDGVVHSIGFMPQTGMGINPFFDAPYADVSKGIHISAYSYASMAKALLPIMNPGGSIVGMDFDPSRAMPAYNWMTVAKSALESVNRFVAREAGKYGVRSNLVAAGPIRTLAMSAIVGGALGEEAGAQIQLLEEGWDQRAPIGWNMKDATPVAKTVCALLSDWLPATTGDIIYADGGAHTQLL
pIC50: −log10 of the molar value.

smi	pIC50
O=C1c2ccccc2C(=O)N1c1nnc(-c2ccc(I)cc2)s1	5.06
